Test system: Escherichia coli
method_description: MIC, broth two-fold serial dilution test, Escherichia coli (Ecol)
Assay type: cell-based
assay_setup: M9G
Text: The compounds identified with a prime (') were the non-iodo analogues of the invention compounds, i.e., the compounds of formula III or IV. All data are reported in ppm of active ingredient required to control the respective organism. […] When the test is ready to be done, each vessel in the dilution series, except the first vessel, contains an equal volume of compound free broth. […]
value_kind: MIC

Enquiry: Find the recorded MIC belonging to CC1C(=O)N(c2cc(Cl)cc(Cl)c2)C(=O)N1CC#CI (centres unmarked) [Compound 1] and report it.
Return: > 500 µg/mL

Enquiry: Find the recorded MIC belonging to C#CCN1C(=O)NC(C)(C)C1=O [Compound 12, 3-(2-propynyl)-5,5-dimethylhydantoin, reference compound] and report it.
Return: > 500 µg/mL

Enquiry: Find the recorded MIC belonging to CC1(C)C(=O)N(c2cc(Cl)cc(Cl)c2)C(=O)N1CC#CI [Compound 6] and report it.
Return: > 500 µg/mL

Enquiry: Find the recorded MIC belonging to O=C1N(c2cc(Cl)cc(Cl)c2)C(=O)C2(CCCC2)N1CC#CI [Compound 4] and report it.
Return: > 500 µg/mL

Enquiry: Find the recorded MIC belonging to CCCCN1C(=O)N(CC#CI)C(C)(C)C1=O [Compound 9] and report it.
Return: 16 µg/mL

Enquiry: Find the recorded MIC belonging to O=C1N(c2cc(Cl)cc(Cl)c2)C(=O)C2(CCCCC2)N1CC#CI [Compound 5] and report it.
Return: > 500 µg/mL

Enquiry: Find the recorded MIC belonging to CC1(C)C(=O)N(CC#CI)C(=O)N1CC#CI [Compound 11] and report it.
Return: 64 µg/mL

Enquiry: Find the recorded MIC belonging to CC(C)(C#CI)N1CC(=O)N(c2cc(Cl)cc(Cl)c2)C1=O [Compound 13] and report it.
Return: > 500 µg/mL

Enquiry: Find the recorded MIC belonging to C#CCN1C(=O)N(c2cc(Cl)cc(Cl)c2)C(=O)C1C (centres unmarked) [Compound 1', reference compound] and report it.
Return: > 500 µg/mL

Enquiry: Find the recorded MIC belonging to CC1(C)C(=O)N(CC#CI)C(=O)N1Cc1ccccc1 [Compound 14] and report it.
Return: 125 µg/mL

Enquiry: Find the recorded MIC belonging to CC1C(=O)N(c2ccc(Cl)cc2)C(=O)N1CC#CI (centres unmarked) [Compound 2] and report it.
Return: > 500 µg/mL

Enquiry: Find the recorded MIC belonging to O=C1CNC(=O)N1CC#CI [Compound 15, 3-(3-iodo-2-propynyl)-hydantoin] and report it.
Return: 64 µg/mL

Enquiry: Find the recorded MIC belonging to CC1C(=O)N(c2ccc(F)cc2)C(=O)N1CC#CI (centres unmarked) [Compound 3] and report it.
Return: > 500 µg/mL

Enquiry: Find the recorded MIC belonging to CCCCCCCCN1C(=O)N(CC#CI)C(C)(C)C1=O [Compound 10] and report it.
Return: 250 µg/mL

Enquiry: Find the recorded MIC belonging to C#CCN1C(=O)N(Cc2ccccc2)C(C)(C)C1=O [Compound 14, reference compound] and report it.
Return: > 500 µg/mL

Enquiry: Find the recorded MIC belonging to CC1(C)C(=O)N(Cc2ccccc2)C(=O)N1CC#CI [Compound 8] and report it.
Return: 64 µg/mL

Enquiry: Find the recorded MIC belonging to C#CCN1C(=O)N(CC#C)C(C)(C)C1=O [Compound 11, reference compound] and report it.
Return: > 500 µg/mL

Enquiry: Find the recorded MIC belonging to CC1(C)NC(=O)N(CC#CI)C1=O [Compound 12] and report it.
Return: 125 µg/mL

Enquiry: Find the recorded MIC belonging to O=C1CN(CC#CI)C(=O)N1c1cc(Cl)cc(Cl)c1 [Compound 7] and report it.
Return: > 500 µg/mL

Enquiry: Find the recorded MIC belonging to C#CCN1C(=O)N(Cc2ccccc2)C(=O)C1(C)C [Compound 8, reference compound] and report it.
Return: > 500 µg/mL
